Values were extracted from patent US7973012B2.

Molecular target: human SGLT2 (Homo sapiens, UniProt P31639)
Sequence (P31639 1-672): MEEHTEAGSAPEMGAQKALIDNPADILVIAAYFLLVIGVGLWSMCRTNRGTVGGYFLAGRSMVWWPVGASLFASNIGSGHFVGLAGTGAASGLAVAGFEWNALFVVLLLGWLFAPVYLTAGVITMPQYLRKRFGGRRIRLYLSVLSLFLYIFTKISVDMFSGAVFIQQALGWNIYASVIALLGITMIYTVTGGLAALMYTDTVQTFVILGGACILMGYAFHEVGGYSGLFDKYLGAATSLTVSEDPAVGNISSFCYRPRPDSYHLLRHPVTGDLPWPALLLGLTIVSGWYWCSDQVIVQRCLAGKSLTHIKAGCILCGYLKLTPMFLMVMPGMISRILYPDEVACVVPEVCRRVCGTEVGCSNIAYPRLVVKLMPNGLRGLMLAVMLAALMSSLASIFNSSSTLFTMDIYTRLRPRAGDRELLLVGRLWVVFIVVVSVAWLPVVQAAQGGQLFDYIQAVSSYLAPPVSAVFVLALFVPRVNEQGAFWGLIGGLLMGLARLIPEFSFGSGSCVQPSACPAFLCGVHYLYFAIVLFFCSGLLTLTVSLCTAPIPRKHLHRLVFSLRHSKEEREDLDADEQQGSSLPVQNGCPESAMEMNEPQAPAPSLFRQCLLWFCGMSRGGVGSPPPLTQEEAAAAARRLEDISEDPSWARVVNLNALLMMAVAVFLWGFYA
Experiment: Inhibition test of sodium-dependent sugar uptake in CHO-k1 cells stably expressing human SGLT2
Conditions: CHO-k1 cells expressing human SGLT2; [14C]methyl α-D-glucopyranoside uptake, 37° C., an hour
measurement.type: IC50 (µM)
Field format: number, assumed µM, no unit text.

## Task Name the recorded IC50 of the compound listed here: "Cc1cc(O)c([C@@H]2O[C@H](CO)[C@@H](O)[C@H](O)[C@H]2O)cc1Cc1ccc(OCCNC(=O)NC(CO)(CO)CO)cc1"
## Result 0.101

## Task Name the recorded IC50 of the compound listed here: "Cc1cc(O)c([C@@H]2O[C@H](CO)[C@@H](O)[C@H](O)[C@H]2O)cc1Cc1ccc(CCCC(=O)NC(C)(CO)CO)cc1"
## Result 0.018

## Task Name the recorded IC50 of the compound listed here: "Cc1cc(O)c([C@@H]2O[C@H](CO)[C@@H](O)[C@H](O)[C@H]2O)cc1Cc1ccc(CCNC(=O)NC2CCN(Cc3ccccc3)CC2)cc1"
## Result 0.011

## Task Name the recorded IC50 of the compound listed here: "Cc1cc(O)c([C@@H]2O[C@H](CO)[C@@H](O)[C@H](O)[C@H]2O)cc1Cc1ccc(CCNC(=O)NCC2CCCCC2)cc1"
## Result 0.018

## Task Name the recorded IC50 of the compound listed here: Cc1cc(O)c([C@@H]2O[C@H](CO)[C@@H](O)[C@H](O)[C@H]2O)cc1Cc1ccc(CCNC(=O)NC2CN3CCC2CC3)cc1 (stereo partly drawn)
## Result 0.01

## Task Name the recorded IC50 of the compound listed here: "Cc1cc(O)c([C@@H]2O[C@H](CO)[C@@H](O)[C@H](O)[C@H]2O)cc1Cc1ccc(CCNC(=O)N2CCC(C)CC2)cc1"
## Result 0.034

----------
biological target: human SGLT2 (Homo sapiens); construct: expressed in transfected cells; host or cells: CHO-k1; test: Inhibition test of sodium-dependent sugar uptake in CHO-k1 cells stably expressing human SGLT2; format: cell-based; settings: sugar uptake inhibition rate at 100 nM test compound vs control group
Assignment: determine reported SGLT2 % inhibition at 100 nM for the given molecules.
Note: a bare number is incomplete; add the unit.

## Task Enter measured SGLT2 % inhibition at 100 nM, system human SGLT2 (Homo sapiens), for the molecule shown: CCC(CO)NC(=O)NCCc1ccc(Cc2cc([C@@H]3O[C@H](CO)[C@@H](O)[C@H](O)[C@H]3O)c(O)cc2C)cc1 (stereo partly drawn)
## Result 77%

## Task Enter measured SGLT2 % inhibition at 100 nM, system human SGLT2 (Homo sapiens), for the molecule shown: "Cc1cc(O)c([C@@H]2O[C@H](CO)[C@@H](O)[C@H](O)[C@H]2O)cc1Cc1ccc(CCNC(=O)N[C@H](CO)Cc2ccccc2)cc1"
## Result 87%

## Task Enter measured SGLT2 % inhibition at 100 nM, system human SGLT2 (Homo sapiens), for the molecule shown: "Cc1cc(O)c([C@@H]2O[C@H](CO)[C@@H](O)[C@H](O)[C@H]2O)cc1Cc1ccc(CCNC(=O)N[C@@H](Cc2ccccc2)C(N)=O)cc1"
## Result 89%

----------
Target: human SGLT2 (Homo sapiens)
Sequence (P31639 1-672): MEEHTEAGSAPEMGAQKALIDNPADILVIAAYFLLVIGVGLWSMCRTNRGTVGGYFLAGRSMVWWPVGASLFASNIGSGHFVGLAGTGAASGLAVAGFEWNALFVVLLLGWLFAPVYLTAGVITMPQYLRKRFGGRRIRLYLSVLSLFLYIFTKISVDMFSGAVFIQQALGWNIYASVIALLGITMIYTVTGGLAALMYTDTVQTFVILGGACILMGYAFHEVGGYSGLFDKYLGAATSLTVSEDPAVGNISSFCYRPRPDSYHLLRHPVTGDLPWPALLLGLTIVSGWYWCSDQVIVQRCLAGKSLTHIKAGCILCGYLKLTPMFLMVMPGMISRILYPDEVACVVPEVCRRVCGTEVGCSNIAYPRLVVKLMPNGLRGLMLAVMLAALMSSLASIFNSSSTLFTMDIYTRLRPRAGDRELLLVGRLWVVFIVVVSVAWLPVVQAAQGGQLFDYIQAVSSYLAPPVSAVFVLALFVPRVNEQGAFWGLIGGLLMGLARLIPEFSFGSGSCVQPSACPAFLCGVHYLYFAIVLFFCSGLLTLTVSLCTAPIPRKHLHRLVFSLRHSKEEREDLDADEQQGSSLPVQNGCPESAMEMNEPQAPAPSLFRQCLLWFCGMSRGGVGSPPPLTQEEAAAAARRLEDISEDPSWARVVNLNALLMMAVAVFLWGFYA
Assay: Inhibition test of sodium-dependent sugar uptake in CHO-k1 cells stably expressing human SGLT2
Conditions: CHO-k1 cells expressing human SGLT2; [14C]methyl α-D-glucopyranoside uptake, 37° C., an hour
The threshold is 20 nM. Values of IC50 beneath it are tagged Met; values meeting or exceeding it are tagged Not met.

## Task Problem: For the compound "CSCCNC(=O)NCCc1ccc(Cc2cc([C@@H]3O[C@H](CO)[C@@H](O)[C@H](O)[C@H]3O)c(O)cc2C)cc1" , is IC50 under 20 nM?
## Result Met

## Task Problem: For the compound "Cc1cc(O)c([C@@H]2O[C@H](CO)[C@@H](O)[C@H](O)[C@H]2O)cc1Cc1ccc(CCNC(=O)NCc2cccs2)cc1" , is IC50 under 20 nM?
## Result Met

## Task Problem: For the compound "COC(=O)CNC(=O)NCCc1ccc(Cc2cc([C@@H]3O[C@H](CO)[C@@H](O)[C@H](O)[C@H]3O)c(O)cc2C)cc1" , is IC50 under 20 nM?
## Result Not met

## Task Problem: For the compound "Cc1cc(O)c([C@@H]2O[C@H](CO)[C@@H](O)[C@H](O)[C@H]2O)cc1Cc1ccc(CCCC(=O)NC(CO)(CO)CO)cc1" , is IC50 under 20 nM?
## Result Not met

## Task Problem: For the compound "Cc1cc(O)c([C@@H]2O[C@H](CO)[C@@H](O)[C@H](O)[C@H]2O)cc1Cc1ccc(CCCNC(=O)NC(CO)(CO)CO)cc1" , is IC50 under 20 nM?
## Result Not met

## Task Problem: For the compound "Cc1cc(O)c([C@@H]2O[C@H](CO)[C@@H](O)[C@H](O)[C@H]2O)cc1Cc1ccc(CCNC(=O)NCCN2CCCC2)cc1" , is IC50 under 20 nM?
## Result Met

## Task Problem: For the compound "COC(=O)[C@H](Cc1ccccc1)NC(=O)NCCc1ccc(Cc2cc([C@@H]3O[C@H](CO)[C@@H](O)[C@H](O)[C@H]3O)c(O)cc2C)cc1" , is IC50 under 20 nM?
## Result Met

## Task Problem: For the compound Cc1cc(O)c([C@@H]2O[C@H](CO)[C@@H](O)[C@H](O)[C@H]2O)cc1Cc1ccc(CCNC(=O)NC2CCCc3ccccc32)cc1 (stereo partly shown) , is IC50 under 20 nM?
## Result Not met

## Task Problem: For the compound "Cc1cc(O)c([C@@H]2O[C@H](CO)[C@@H](O)[C@H](O)[C@H]2O)cc1Cc1ccc(CCNC(=O)NC(C)(C)CO)cc1" , is IC50 under 20 nM?
## Result Not met

## Task Problem: For the compound "Cc1cc(O)c([C@@H]2O[C@H](CO)[C@@H](O)[C@H](O)[C@H]2O)cc1Cc1ccc(CCCC(=O)NC(C)(C)C(N)=O)cc1" , is IC50 under 20 nM?
## Result Not met

## Task Problem: For the compound "Cc1cc(O)c([C@@H]2O[C@H](CO)[C@@H](O)[C@H](O)[C@H]2O)cc1Cc1ccc(CCCC(=O)NC(C)(C)CO)cc1" , is IC50 under 20 nM?
## Result Met

## Task Problem: For the compound "Cc1cc(O)c([C@@H]2O[C@H](CO)[C@@H](O)[C@H](O)[C@H]2O)cc1Cc1ccc(CCCNC(=O)NC(C)(C)CO)cc1" , is IC50 under 20 nM?
## Result Not met
